Taken from ChEMBL document CHEMBL2424633.

Measured fold change (FC) of individual entries
Tested on: 3T3-L1
Assay Info: Downregulation of ACC-1 gene expression in mouse 3T3L1 cells at […] after 4 days by RT-PCR analysis relative to untreated control
Type: functional
Answer with a bare number; do not write a unit.

// known answers, use as guide
1) CN(C)CCNC(=S)N/N=C\c1ccc(OCc2cn(Cc3ccccc3)nn2)cc1 :: 2
2) CC(C)CNC(=S)N/N=C\c1ccc(OCc2cn(Cc3ccccc3)nn2)cc1 :: 2
3) CCCCCCCCNC(=S)N/N=C\c1ccc(OCc2cn(Cc3ccccc3)nn2)cc1 :: 4

// switching to the query compound
Query string: Please provide the recorded fold change (FC) for "S=C(NCCc1ccccc1)N/N=C\c1ccc(OCc2cn(Cc3ccccc3)nn2)cc1" , tested on 3T3-L1.
Result string: 2
